We begin with a simple list: items and their reported TGI.
Test system: SNB-75 CNS
test_protocol: NCI tumour cell line growth inhibition, 48 h

# molecule, sign, TGI (µM)
data = [
    ("C=C1C(=O)O[C@H]2[C@H]1CC/C(COC(=O)NCc1c[nH]c3ccc(Cl)cc13)=C\\CC[C@@]1(C)O[C@@H]21", "=", 2.57),
    ("NC1=N/C(=C2/CCNC(=O)c3[nH]c(Br)cc32)C(=O)N1", ">", 91.5),
    ("O=C1CCC2(CC1)SCCCS2", ">", 100),
    ("CC12CCC[C@@](C)(C(=O)OC3OC(CO)C(O)C(O)C3O)[C@H]1CCC13CC4CC(OC4(CO)[C@H]1O)[C@@H]23 (some centres not stated)", ">", 100),
    ("CN(C)CCNC(=O)c1cccc2[nH]c(-c3ccccc3)nc12", "=", 75.3),
    ("O=C(Cc1ccc(Cl)c(Cl)c1)N(CCc1ccc(Cl)c(Cl)c1)CCN1CCCC1", "=", 4.31),
    ("CCN(CC)C(=O)COc1ccc(Br)cc1Br", ">", 100),
]

----------
We begin with a simple list: items and their reported GI50.
Tested on: UO-31 renal
test_protocol: NCI tumour cell line growth inhibition, 48 h

# compound, GI50
records = [
    ("CCOC(=O)c1c(C(F)(F)F)n([O-])c2ccc(OC)cc2[n+]1=O", "6.68 µM"),
    ("CCCN(CCC)c1ccc(/C=N/NC(=O)c2cccnc2)c(Cl)c1", "14.3 µM"),
    ("C=C1C(=O)O[C@H]2[C@H]1CC/C(COC(=O)NCc1c[nH]c3ccc(Cl)cc13)=C\\CC[C@@]1(C)O[C@@H]21", "1.43 µM"),
    ("Cc1ccc(S(=O)(=O)N2CCc3ccc(O)c4c3C2Cc2cc(Cl)ccc2-4)cc1 (stereo unspecified)", "1.52 µM"),
    ("COc1ccc(-c2ccc(C3CC(c4ccc(Cl)cc4)=NN3)o2)c([N+](=O)[O-])c1 (stereo unspecified)", "> 100 µM"),
    ("N.N.NCCCCN.O=C([O-])C1(C(=O)[O-])CCC1.O=C([O-])C1(C(=O)[O-])CCC1.[Pt+4].[Pt+4]", "> 100 µM"),
]

----------
System: UACC-257 melanoma
test_protocol: NCI tumour cell line growth inhibition, 48 h
value_type: TGI

# query_smiles, endpoint_value
measured = [
    ("CCOC(=O)/C(=C/c1ccc(C#N)cc1)N(CC)CC", "> 100 µM"),
    ("O=C(OC(=C(c1ccccc1)c1ccccc1)N1CCCC1=S)C(c1ccccc1)c1ccccc1", "> 10 µM"),
    ("O=c1[nH]nc(Cc2ccc(Cl)cc2)n1/N=C\\c1ccc(/C=N/n2c(Cc3ccc(Cl)cc3)n[nH]c2=O)cc1", "> 100 µM"),
    ("CCOC(=O)c1sc(=S)c2c(C(=O)OCC)c(C(=O)OCC)sc2c1C(=O)OCC", "39 µM"),
]

----------
System: RPMI-8226 leukemia
test_protocol: NCI tumour cell line growth inhibition, 48 h
We begin with a simple list: items and their reported GI50.

# query_smiles, GI50
rows = [
    ("NCCC(O)(P(=O)(O)O)P(=O)(O)O", "> 100 µM"),
    ("Cc1nc(NC(=O)CCCN2C(=O)c3cccc4cccc(c34)C2=O)sc1C(=O)Nc1cc(C(=O)NCCCN(C)C)n(C)c1", "> 100 µM"),
    ("COc1cc(/C=C2\\COc3ccc(O)c(O)c3C2=O)cc(OC)c1", "0.558 µM"),
]
